- Test system: SARS-CoV-2 (USA_WA1/2020)
- Assay name: microbe, parasite or virus in culture
- Format: cell-based
- Test settings: Severe acute respiratory syndrome coronavirus 2, Vero C1008, SARS-CoV-2 CPE assay, Vero E6 cells; confirmed anti-SARS-CoV-2 compounds; read-out: CPE EC50
Where a name gives a salt, the structure may show the parent alone.
Measurement type: pEC50
Lab note — pEC50 values are minus log10 of concentrations in M.

>>> data_value("CC(CN1c2ccccc2Sc2ccccc21)N(C)C (centres unmarked) [Promethazine]")
4.95

Inquiry: Endpoint output: pEC50 of CC1=C(c2ccc(O)cc2)[C@H](c2ccc(OCCN3CCCCC3)cc2)Oc2cc(O)ccc21 [Acolbifene] . Value?
Reply text: 5.25

Inquiry: Now try CNCCCN1c2ccccc2CCc2ccccc21 [Desipramine hydrochloride] .
Reply text: 4.95

Inquiry: Now try Oc1c(Cl)cc(Cl)c2cccnc12 [Chloroxine] .
Reply text: 4.95

Inquiry: Now try CN(C)[C@@H](CCOc1cccc2ccccc12)c1ccccc1 [Dapoxetine] .
Reply text: 5.00

----------
- Tested on: Vero E6 cells
- Test settings: read-out: Cytotox CC50; cytotoxicity counter-assay, Vero E6 cells without virus
Measurement type: CC50

Inquiry: Endpoint output: CC50 of `Cc1nc(Nc2cnn(C3CCNCC3)c2)nc2c1N(C)C(=O)c1cc3ccccc3cc1N2C` . Value?
Reply text: 12.6 µM

----------
- System: SARS-CoV-2 (USA_WA1/2020)
- Assay name: microbe, parasite or virus in culture
- Format: cell-based
- Test settings: Severe acute respiratory syndrome coronavirus 2, Vero C1008; SARS-CoV-2 CPE assay, Vero E6 cells; read-out: CPE % Efficacy
Counter-ions that a name gives are not always drawn.
Measurement type: Emax (%)
# number only, unit % dropped from output

>>> data_value("O=C1Nc2ccc(Cl)cc2[C@@](C#CC2CC2)(C(F)(F)F)O1")
90.6
>>> data_value("Clc1ccc2c(c1)N=C(N1CCNCC1)c1ccccc1N2")
31.1
>>> data_value("CCCNCC(O)COc1ccccc1C(=O)CCc1ccccc1 (stereo not drawn) [Propafenone hydrochloride]")
61.6

Inquiry: Endpoint output: Emax of `CCOC(=O)[C@H](CCc1ccccc1)N[C@H]1CCc2ccccc2N(CC(=O)O)C1=O` . Value?
Reply text: 108

----------
Listed below: Emax values for each entry.
- Tested on: SARS-CoV-2 (USA_WA1/2020)
- Assay name: microbe, parasite or virus in culture
- Format: cell-based
- Test settings: Severe acute respiratory syndrome coronavirus 2, Vero C1008; SARS-CoV-2 CPE assay, Vero E6 cells; read-out: CPE % Efficacy
Where a name gives a salt, the structure may show the parent alone.
# number only, unit % dropped from output

Record excerpt, results attached:
>>> data_value("COc1cc2nc(N3CCN(C(=O)C4COc5ccccc5O4)CC3)nc(N)c2cc1OC (stereo not drawn) [Doxazosin mesylate]")
86.6
>>> data_value("CN1[C@@H]2CC[C@H]1C[C@@H](OC(c1ccccc1)c1ccccc1)C2 [Benztropine mesylate]")
59
>>> data_value("CC(C)[C@@]1(NC(=O)[C@@H]2C[C@@H]3c4cccc5[nH]cc(c45)C[C@H]3N(C)C2)O[C@@]2(O)[C@@H]3CCCN3C(=O)[C@H](Cc3ccccc3)N2C1=O [Dihydroergocristine]")
32

Inquiry: Endpoint output: Emax of COC(=O)C1=C(C)NC(C)=C(C(=O)OCCN(C)Cc2ccccc2)C1c1cccc([N+](=O)[O-])c1 (stereo not drawn) [Nicardipine] . Value?
Reply text: 56.3

Inquiry: Now try C=CC(=O)N[C@H]1CCOC[C@H]1Nc1ncc2cc(-c3c(Cl)c(OC)cc(OC)c3Cl)ccc2n1 [BLU-554] .
Reply text: 31.5

Inquiry: Now try CCc1ccc(N(CC(C)C)S(=O)(=O)c2ccc(OCC3CCOCC3)c(CO)c2)cc1 [GSK-2981278] .
Reply text: 36
